# Subject Of Test: human δ opioid receptor (Homo sapiens)
# Sequence (P41143 whole entry): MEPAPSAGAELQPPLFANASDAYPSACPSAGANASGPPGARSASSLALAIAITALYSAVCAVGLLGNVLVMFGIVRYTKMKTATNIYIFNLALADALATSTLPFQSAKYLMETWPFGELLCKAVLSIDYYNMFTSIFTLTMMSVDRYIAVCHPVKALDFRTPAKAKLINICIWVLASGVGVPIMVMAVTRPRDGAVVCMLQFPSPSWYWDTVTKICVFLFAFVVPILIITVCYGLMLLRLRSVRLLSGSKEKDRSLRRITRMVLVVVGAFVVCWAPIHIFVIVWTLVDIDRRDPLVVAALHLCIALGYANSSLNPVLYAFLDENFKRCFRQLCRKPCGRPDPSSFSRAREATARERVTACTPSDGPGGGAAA
# Assay Method Text: Stimulation of [35S]GTPγS binding, δ
# Type: biochemical
# Experimental Conditions: read-out: Agonism δ Emax (%)
Counter-ions that a name gives are not always drawn. Non-standard residues stand in square brackets, D forms with d. Residues, ends and D or L forms follow the SMILES beside them. *: point of attachment. Dmt = Cc1cc(O)cc(C)c1C[C@H](N)C(=O)O; dTic = O=C(O)[C@H]1Cc2ccccc2CN1; NHBn = c1ccc(CN*)cc1
Property: Emax (%)
One number for each entry, in %.

Examples with their reported Emax follow.
What value of Emax has been recorded for this entry: Cc1cc(O)cc(C)c1C[C@H](N)C(=O)N1Cc2ccccc2C[C@@H]1C(=O)NCC(=O)NCc1ccccc1 [Compound 2, TFA·H-Dmt-D-Tic-Gly-NH-Bzl] (H-[Dmt]-[dTic]-Gly-NHBn)
44

What value of Emax has been recorded for this entry: Cc1ccc(CNC(=O)CNC(=O)[C@@H]2Cc3ccccc3CN2C(=O)[C@@H](N)Cc2c(C)cc(O)cc2C)cc1 [Compound 4, TFA·H-Dmt-Tic-Gly-NH-Bzl(pMe)]
0.4

What value of Emax has been recorded for this entry: Cc1cc(O)cc(C)c1C[C@H](N)C(=O)N1Cc2ccccc2C[C@H]1C(=O)NCC(=O)NCc1ccc(Cl)cc1 [Compound 3, TFA·H-Dmt-Tic-Gly-NH-Bzl(pCl)]
4.5

What value of Emax has been recorded for this entry: Cc1cc(O)cc(C)c1C[C@H](N)C(=O)N1Cc2ccccc2C[C@H]1C(=O)NCC(=O)NC(c1ccccc1)c1ccccc1 [Compound 7, TFA·H-Dmt-Tic-Gly-NH-Benzhydryl]
-1.9

Count: 3. Required value per item: Emax.
1. Cc1cc(O)cc(C)c1C[C@H](N)C(=O)N1Cc2ccccc2C[C@H]1C(=O)NCC(=O)NCc1ccc(N)cc1 [Compound 6, 2TFA·H-Dmt-Tic-Gly-NH-Bzl(pNH2)]
2. Cc1cc(O)cc(C)c1C[C@H](N)C(=O)N1Cc2ccccc2C[C@H]1C(=O)NCC(=O)N1CCc2ccccc2C1 [Compound 8]
3. Cc1cc(O)cc(C)c1C[C@H](N)C(=O)N1Cc2ccccc2C[C@H]1C(=O)NCC(=O)NCc1ccc([N+](=O)[O-])cc1 [Compound 5, TFA·H-Dmt-Tic-Gly-NH-Bzl(pNO2)]

1: 13; 2: -1.4; 3: 3.1

====

Record form. Attribute: Emax. Fill in for each entry.
# Subject Of Test: human μ opioid receptor (Homo sapiens)
# Sequence (P35372 whole entry): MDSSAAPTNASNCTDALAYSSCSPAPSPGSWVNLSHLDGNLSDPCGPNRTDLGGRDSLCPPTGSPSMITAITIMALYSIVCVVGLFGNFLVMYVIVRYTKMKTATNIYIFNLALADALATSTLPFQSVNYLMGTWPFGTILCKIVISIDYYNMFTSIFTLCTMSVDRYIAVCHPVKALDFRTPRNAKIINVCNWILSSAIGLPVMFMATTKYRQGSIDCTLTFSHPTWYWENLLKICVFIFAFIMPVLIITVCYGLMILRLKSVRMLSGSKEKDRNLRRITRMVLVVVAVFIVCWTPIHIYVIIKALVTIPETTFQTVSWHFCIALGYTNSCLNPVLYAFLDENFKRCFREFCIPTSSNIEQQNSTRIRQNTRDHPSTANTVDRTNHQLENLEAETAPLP
# Assay Method Text: Stimulation of [35S]GTPγS binding, μ
# Assay type: biochemical
# Experimental Conditions: read-out: Agonism μ Emax (%)
Structures can show the parent of a compound that is named as a salt. Non-standard residues stand in square brackets, D forms with d. Residues, ends and D or L forms follow the SMILES beside them. *: point of attachment. Dmt = Cc1cc(O)cc(C)c1C[C@H](N)C(=O)O; dTic = O=C(O)[C@H]1Cc2ccccc2CN1; NHBn = c1ccc(CN*)cc1
Numbers only, in %.

Examples with their reported Emax follow.
What value of Emax has been recorded for this entry: Cc1cc(O)cc(C)c1C[C@H](N)C(=O)N1Cc2ccccc2C[C@H]1C(=O)NCC(=O)N1CCc2ccccc2C1
43

What value of Emax has been recorded for this entry: Cc1ccc(CNC(=O)CNC(=O)[C@@H]2Cc3ccccc3CN2C(=O)[C@@H](N)Cc2c(C)cc(O)cc2C)cc1 [Compound 4, TFA·H-Dmt-Tic-Gly-NH-Bzl(pMe)]
34

What value of Emax has been recorded for this entry: Cc1cc(O)cc(C)c1C[C@H](N)C(=O)N1Cc2ccccc2C[C@@H]1C(=O)NCC(=O)NCc1ccccc1 [Compound 2, TFA·H-Dmt-D-Tic-Gly-NH-Bzl] (H-[Dmt]-[dTic]-Gly-NHBn)
92

What value of Emax has been recorded for this entry: Cc1cc(O)cc(C)c1C[C@H](N)C(=O)N1Cc2ccccc2C[C@H]1C(=O)NCC(=O)NC(c1ccccc1)c1ccccc1 [Compound 7, TFA·H-Dmt-Tic-Gly-NH-Benzhydryl]
45

What value of Emax has been recorded for this entry: Cc1cc(O)cc(C)c1C[C@H](N)C(=O)N1Cc2ccccc2C[C@H]1C(=O)NCC(=O)NCc1ccc(Cl)cc1 [Compound 3, TFA·H-Dmt-Tic-Gly-NH-Bzl(pCl)]
52

Here is the next item to consider.
What value of Emax has been recorded for this entry: Cc1cc(O)cc(C)c1C[C@H](N)C(=O)N1Cc2ccccc2C[C@H]1C(=O)NCC(=O)NCc1ccc([N+](=O)[O-])cc1 [Compound 5, TFA·H-Dmt-Tic-Gly-NH-Bzl(pNO2)]
16

====

# Subject Of Test: UniProt P41143
# Assay Method Text: Stimulation of [35S]GTPγS binding, δ
Where a name gives a salt, the structure may show the parent alone. Non-standard residues stand in square brackets, D forms with d. Residues, ends and D or L forms follow the SMILES beside them. *: point of attachment. Dmt = Cc1cc(O)cc(C)c1C[C@H](N)C(=O)O; dTic = O=C(O)[C@H]1Cc2ccccc2CN1; NHBn = c1ccc(CN*)cc1
Property: pEC50
One number for each entry, as −log10 of the molar value.

What value of pEC50 has been recorded for this entry: Cc1cc(O)cc(C)c1C[C@H](N)C(=O)N1Cc2ccccc2C[C@@H]1C(=O)NCC(=O)NCc1ccccc1 [Compound 2, TFA·H-Dmt-D-Tic-Gly-NH-Bzl] (H-[Dmt]-[dTic]-Gly-NHBn)
8.55

====

# Subject Of Test: human δ opioid receptor (Homo sapiens)
# Assay Method Text: Inhibition of SNC 80-stimulated [35S]GTPγS binding, δ
# Assay type: biochemical
# Experimental Conditions: in presence of 10 nM SNC 80; NI = No inhibition
Where a name gives a salt, the structure may show the parent alone.
Property: Antagonism δ Imax (%)
One number for each entry, in %.

Examples with their reported Antagonism δ Imax (%) follow.
Please tell me: Antagonism δ Imax (%) of Cc1cc(O)cc(C)c1C[C@H](N)C(=O)N1Cc2ccccc2C[C@H]1C(=O)NCC(=O)N1CCc2ccccc2C1 , system human δ opioid receptor (Homo sapiens)?
99

Please tell me: Antagonism δ Imax (%) of Cc1ccc(CNC(=O)CNC(=O)[C@@H]2Cc3ccccc3CN2C(=O)[C@@H](N)Cc2c(C)cc(O)cc2C)cc1 [Compound 4, TFA·H-Dmt-Tic-Gly-NH-Bzl(pMe)] , system human δ opioid receptor (Homo sapiens)?
86

Next:
Please tell me: Antagonism δ Imax (%) of Cc1cc(O)cc(C)c1C[C@H](N)C(=O)N1Cc2ccccc2C[C@H]1C(=O)NCC(=O)NCc1ccc([N+](=O)[O-])cc1 [Compound 5, TFA·H-Dmt-Tic-Gly-NH-Bzl(pNO2)] , system human δ opioid receptor (Homo sapiens)?
79

Hey, just so you know, these numbers are from paper PMC2843921.
